assay: AUCinf in Sprague-Dawley rat at 2.5 mg/kg, iv measured up to 24 hrs by LC/MS-MS analysis; type: ADME, organism-based; design: dose 2.5 mg/kg, time < 24 hrs, route iv; conditions: in vivo
measurement-name: AUC(0-inf) (ng·h/mL)
// return numeric value only (unit: ng·h/mL, not printed)

Q: Hello, please tell me recorded AUC(0-inf) for this one: O=C1OC(CCCN2CCN(Cc3ccc(C(F)(F)F)cc3)CC2)c2ccccc21 (racemic)
Result: 1580

----------
assay: Ratio AUClast in Sprague-Dawley rat brain to plasma at 2.5 mg/kg, iv measured up to 24 hrs by LC/MS-MS analysis; type: ADME, organism-based; details: brain and plasma
measurement-name: Kp at 24 h
Please give only the number in your answer, with no unit.

Q: Indicate its recorded Kp at 24 h; the molecule in question is O=C1OC(CCCN2CCN(Cc3ccc(C(F)(F)F)cc3)CC2)c2ccccc21 (racemic)
Result: 0.71

----------
experiment: Bioavailability in Sprague-Dawley rat at 2.5 mg/kg, iv measured up to 24 hrs by LC/MS-MS analysis; format: ADME, organism-based; details: in vivo
measurement-name: bioavailability (%)
Express it in %; write the number only.

Q: // Input: O=C1OC(CCCN2CCN(Cc3ccc(C(F)(F)F)cc3)CC2)c2ccccc21 (racemic) . Output its bioavailability only.
Result: 63.4

----------
molecular target: Glutamate NMDA receptor; GRIN1/GRIN2A (Homo sapiens) (UniProt Q05586+Q12879); experiment: Antagonist activity at GluN1/GluN2A NMDA receptor (unknown origin) transfected in HEK293 cells assessed as inhibition of glycine induced current response at 10 uM in presence of L-glutamate by patch-clamp method; type: cell-based
Consider the following compounds; for each one, report its inhibition.
Phrase the answer as number then unit, nothing more needed.

Q: Given CC(C(O)c1ccc(O)cc1)N1CCC(Cc2ccccc2)CC1 (centres undefined) , respond with its inhibition.
Result: 13.1%

Q: Provide measured inhibition value, entry: O=C1OC(CCCN2CCN(Cc3ccc(C(F)(F)F)cc3)CC2)c2ccccc21 (single isomer, unassigned; enantiomer A)
Result: 23.4%

Q: Complete the entry with inhibition for O=C1OC(CCCN2CCN(Cc3ccc(C(F)(F)F)cc3)CC2)c2ccccc21 (single isomer, unassigned; enantiomer B)
Result: 25.9%

Q: Given O=C1OC(CCCN2CCN(Cc3ccc(C(F)(F)F)cc3)CC2)c2ccccc21 (racemic) , respond with its inhibition.
Result: 26.6%

----------
Hi there, I'd appreciate the recorded Activity for every entry that follows.
assay: Neuroprotective activity against NMDA-induced neurotoxicity in Sprague-Dawley rat hippocampal neurons assessed as increase in cell viability at 10 uM incubated for 18 hrs followed by NMDA addition and measured after 0.5 hrs by MTT assay; assay type: functional, Hippocampal neurone; settings: time 18.5 hrs
Give the value, in units of %, as a plain number.

Q: Look up Activity of O=C1OC(CCCN2CCN(Cc3ccc(Br)cc3)CC2)c2ccccc21 (configuration not stated) and report it.
Result: 46.13

Q: # return recorded Activity for input COc1ccc(CN2CCN(CCCC3OC(=O)c4ccccc43)CC2)cc1OC (configuration not stated)
Result: 48.44

Q: Give recorded Activity. CC(C(O)c1ccc(O)cc1)N1CCC(Cc2ccccc2)CC1 (configuration not stated)
Result: 85.83

Q: Answer with the recorded Activity of O=C1OC(CCCN2CCc3sccc3C2)c2ccccc21 (configuration not stated) only.
Result: 66.52

Q: Give the measured Activity for O=C1OC(CCCN2CCN(Cc3ccc(F)c(F)c3)CC2)c2ccccc21 (configuration not stated)
Result: 75.45

Q: Given O=C1OC(CCCN2CCCC2)c2ccccc21 (configuration not stated) , respond with its Activity.
Result: 73.16

Q: Find the measured Activity of O=C1OC(CCCN2CCN(Cc3cccc([N+](=O)[O-])c3)CC2)c2ccccc21 (configuration not stated) and report it.
Result: 73.28

Q: For the molecule CN(C)CCCC1OC(=O)c2ccccc21 (configuration not stated) , give its reported Activity.
Result: 78.18

Q: Please indicate Activity recorded for O=C1OC(CCN2CCCC2)c2ccccc21 (configuration not stated)
Result: 70.66

Q: Let me know recorded Activity for O=C1OC(CCCN2CCN(Cc3ccc(F)cc3)CC2)c2ccccc21 (configuration not stated) , thanks.
Result: 72.2

Q: Identify measured Activity corresponding to O=C1OC(CCCN2CCC(CO)CC2)c2ccccc21 (configuration not stated)
Result: 78.14

Q: Check the records and state Activity for O=C1OC(CCN2CCc3sccc3C2)c2ccccc21 (configuration not stated)
Result: 66.05

----------
Answer each item with its documented inhibition.
target: Ionotropic glutamate receptor NMDA 1/2D (Homo sapiens) (UniProt Q05586+O15399); experiment: Antagonist activity at GluN1/GluN2D NMDA receptor (unknown origin) transfected in HEK293 cells assessed as inhibition of glycine induced current response at 10 uM in presence of L-glutamate by patch-clamp method; type: cell-based
Reply with just the number (in %).

Q: Find the measured inhibition of O=C1OC(CCCN2CCN(Cc3ccc(C(F)(F)F)cc3)CC2)c2ccccc21 (single isomer, unassigned; enantiomer B) with Ionotropic glutamate receptor NMDA 1/2D (Homo sapiens) (UniProt Q05586+O15399) as test system.
Result: 20.3

Q: Give measured inhibition for O=C1OC(CCCN2CCN(Cc3ccc(C(F)(F)F)cc3)CC2)c2ccccc21 (racemic) (Ionotropic glutamate receptor NMDA 1/2D (Homo sapiens) (UniProt Q05586+O15399)).
Result: 10.3

Q: Consider the molecule CC(C(O)c1ccc(O)cc1)N1CCC(Cc2ccccc2)CC1 (centres undefined) tested on Ionotropic glutamate receptor NMDA 1/2D (Homo sapiens) (UniProt Q05586+O15399); state its inhibition.
Result: 18.1

Q: State inhibition on Ionotropic glutamate receptor NMDA 1/2D (Homo sapiens) (UniProt Q05586+O15399). Entry: O=C1OC(CCCN2CCN(Cc3ccc(C(F)(F)F)cc3)CC2)c2ccccc21 (single isomer, unassigned; enantiomer A)
Result: 16.7

----------
So I've got a bunch of compounds here, and I need their Activity values.
assay: Neuroprotective activity against NMDA-induced neurotoxicity in Sprague-Dawley rat hippocampal neurons assessed as increase in cell viability at 10 uM incubated for 18 hrs followed by NMDA addition and measured after 0.5 hrs by MTT assay; type: functional, Hippocampal neurone; details: time 18.5 hrs
Output spec: scalar in %, unitless text.

Q: Let me know recorded Activity for O=C1OC(CCCN2CCN(Cc3cccnc3)CC2)c2ccccc21 (stereo unspecified) , thanks.
Result: 63.33

Q: Answer with reported Activity of Cc1ccc(CN2CCN(CCCC3OC(=O)c4ccccc43)CC2)cc1 (stereo unspecified)
Result: 68.38

Q: # return recorded Activity for input O=C1OC(CCCN2CCN(Cc3ccncc3)CC2)c2ccccc21 (stereo unspecified)
Result: 75.54

Q: State its Activity: O=C1OC(CCCN2CCOCC2)c2ccccc21 (stereo unspecified)
Result: 76.22

Q: Respond only with Activity recorded for O=C1OC(CCCN2CCC(Cc3ccccc3)CC2)c2ccccc21 (stereo unspecified)
Result: 79.12

Q: Identify measured Activity associated with O=C1OC(CCCN2CCCCC2)c2ccccc21 (stereo unspecified)
Result: 77.85

Q: Determine from records and report Activity for CS(=O)(=O)c1ccc(CN2CCN(CCCC3OC(=O)c4ccccc43)CC2)cc1 (stereo unspecified)
Result: 61.02

Q: Quick one: give measured Activity for CCCCC1OC(=O)c2ccccc21 (stereo not drawn) [RAC-3-N-BUTYLPHTHALIDE]
Result: 73.45

Q: Please report the measured Activity for O=C1OC(CCCN2CCN(Cc3ccccn3)CC2)c2ccccc21 (stereo unspecified)
Result: 74.65

Q: Please report the measured Activity for O=C1OC(CCCN2CCN(Cc3cccc(Cl)c3)CC2)c2ccccc21 (stereo unspecified)
Result: 62.96

Q: // Input: O=C1OC(CCCN2CCN(Cc3ccccc3)CC2)c2ccccc21 (stereo unspecified) . Output its Activity only.
Result: 81.91

----------
experiment: Tmax in Sprague-Dawley rat at 10 mg/kg, po measured up to 24 hrs by LC/MS-MS analysis; assay type: ADME, organism-based; details: in vivo
measurement-name: Tmax (h)
All answers are understood in h, so give the number only.

Q: Report Tmax for O=C1OC(CCCN2CCN(Cc3ccc(C(F)(F)F)cc3)CC2)c2ccccc21 (racemic)
Result: 1.5

----------
Please respond with reported pKi for every item in the list.
target: Glutamate NMDA receptor; test: Displacement of [3H] ifenprodil from Wistar rat glutamate NMDA receptor incubated for 2 hrs by scintillation counting method
Lab note — pKi values are minus log10 of concentrations in M.

Q: Item O=C1OC(CCCN2CCN(Cc3ccccc3)CC2)c2ccccc21 (centres undefined) : provide pKi
Result: 7.87

Q: Entry O=C1OC(CCCN2CCN(Cc3ccc(C(F)(F)F)cc3)CC2)c2ccccc21 (racemic) needs its pKi filled in; supply it.
Result: 8.49

Q: Identify pKi associated with the compound CCCCC1OC(=O)c2ccccc21 (stereo not drawn) [RAC-3-N-BUTYLPHTHALIDE]
Result: 7.83

Q: Give the measured pKi for O=C1OC(CCCN2CCN(Cc3ccc([N+](=O)[O-])cc3)CC2)c2ccccc21 (centres undefined)
Result: 8.34
